All values here come from BigSolDB 2.1.

Conditions: in isopropanol, 303.15 K
measured_quantity: solubility (mole fraction)
Give bare numbers.

Quick check: solubility (mole fraction) of C1CNCCNCCNCCN1 ?
0.00202

###

Conditions: in methanol, 323.15 K
measured_quantity: solubility (mole fraction)
Numbers only.

Quick check: solubility (mole fraction) of C1CNCCNCCNCCN1 ?
0.00328

###

Settings: in methanol, 298.15 K
measured_quantity: solubility (mole fraction)
Numbers only.

Quick check: solubility (mole fraction) of C1CNCCNCCNCCN1 ?
0.00266

###

Details: in isopropanol, 298.15 K
measured_quantity: solubility (mole fraction)
One number for each entry.

Quick check: solubility (mole fraction) of C1CNCCNCCNCCN1 ?
0.00193
